The reported measurements were obtained from PubChem BioAssay (NCI).

- System: PC-3 prostate
- protocolText: NCI-60 one-dose screen, 48 h (100 = growth as untreated, 0 = no growth, -100 = all killed)
- conditionDescription: 10 µM
Compounds without any hit were thinned out: in the full panel of roughly 83,000, 20% have a hit.
So basically: growth at 40% or higher? That is MET. Lower than 40%? That is NOT MET.

{"molecule": "COc1ccc(CN2[C@@H](C(=O)NCc3ccc(C(=O)NO)cc3)Cc3c([nH]c4ccccc34)[C@@H]2C2CC2)cc1", "classification": "NOT MET"}
{"molecule": "O=c1c2ccccc2nc(COc2ccccc2)n1/N=C/c1ccc(N2CCOCC2)cc1", "classification": "MET"}
{"molecule": "COc1ccc(NC(=O)CSc2nnc(-c3ccc4nc(-c5ccc(Cl)cc5)[nH]c4c3)o2)cc1", "classification": "MET"}
{"molecule": "CC1=N/C(=C\\c2ccc(N(C)C)cc2)C(=O)N1CCc1ccc(S(N)(=O)=O)cc1", "classification": "MET"}
{"molecule": "CC1(c2ccccc2)NC(=O)N(CC(=O)Nc2ccc(C(=O)/C=C/c3ccccc3)cc2)C1=O (centres undefined)", "classification": "NOT MET"}
{"molecule": "COc1ccc(-c2nc(S(=O)(=O)c3ccc(C)cc3)c(S(C)(=O)=O)o2)cc1", "classification": "NOT MET"}
{"molecule": "Cc1ccc(-c2cc(-c3cc4ccccc4nc3Cl)[nH]c(=S)n2)cc1", "classification": "MET"}
{"molecule": "Cc1ccc2nc(-c3ccc(-c4nnc(SCC(=O)Nc5ccc(Cl)cc5)o4)cc3)[nH]c2c1", "classification": "NOT MET"}

----------
- System: 786-0 renal
- protocolText: NCI-60 one-dose screen, 48 h
- conditionDescription: 10 µM
About 83,000 compounds went through this panel and 20% of them were active in at least one assay; those are over-represented in the sample as a whole. Active and inactive are the calls of the source. How the source made its calls: active means growth percent below 10; inactive means the rest.
Outcome codes: true (active), false (inactive)

{"compound": "COc1cc(/C=C/C(=O)c2ccc(F)cc2)ccc1Oc1nc(Nc2ccc(F)cc2)nc(N(C)C)n1", "classification": "false"}
{"compound": "O=C(NCCCCCCCCCC[P+](c1ccccc1)(c1ccccc1)c1ccccc1)c1ccc(-n2nc(-c3ccccc3O)nc2-c2ccccc2O)cc1", "classification": "true"}
{"compound": "O=C(Cn1cc(CSc2nnc3oc4ccccc4n23)nn1)Nc1ccc(Br)cc1", "classification": "false"}
{"compound": "Cc1cc(C)nc(NS(=O)(=O)c2ccc(N/C(N)=N/c3nccc(-c4cccs4)n3)cc2)n1", "classification": "false"}
{"compound": "Brc1ccc(/C=C/c2n(Cc3ccc4ccccc4c3)c3ccccc3[n+]2Cc2ccc3ccccc3c2)cc1", "classification": "true"}
{"compound": "OCCNc1oc(-c2ccccc2)nc1[P+](c1ccccc1)(c1ccccc1)c1ccccc1", "classification": "false"}
{"compound": "COc1ccc(C2NC(=S)NC(C)=C2C(=O)OC(C)C)cc1OC (centres undefined)", "classification": "false"}
{"compound": "CN1CCN(c2ccc(C(=O)/C=C/c3ccc(C#N)cc3)cc2)CC1", "classification": "false"}
{"compound": "COc1ccc(CN2[C@H](C(=O)NCc3ccc(C(=O)NO)cc3)Cc3c([nH]c4ccccc34)[C@H]2C2CC2)cc1", "classification": "false"}
